Target under test: KDR (phospho-KDR, VEGF165-stimulated HUVEC cells) (Homo sapiens (Human), UniProt P35968)
Sequence (P35968 20-1356): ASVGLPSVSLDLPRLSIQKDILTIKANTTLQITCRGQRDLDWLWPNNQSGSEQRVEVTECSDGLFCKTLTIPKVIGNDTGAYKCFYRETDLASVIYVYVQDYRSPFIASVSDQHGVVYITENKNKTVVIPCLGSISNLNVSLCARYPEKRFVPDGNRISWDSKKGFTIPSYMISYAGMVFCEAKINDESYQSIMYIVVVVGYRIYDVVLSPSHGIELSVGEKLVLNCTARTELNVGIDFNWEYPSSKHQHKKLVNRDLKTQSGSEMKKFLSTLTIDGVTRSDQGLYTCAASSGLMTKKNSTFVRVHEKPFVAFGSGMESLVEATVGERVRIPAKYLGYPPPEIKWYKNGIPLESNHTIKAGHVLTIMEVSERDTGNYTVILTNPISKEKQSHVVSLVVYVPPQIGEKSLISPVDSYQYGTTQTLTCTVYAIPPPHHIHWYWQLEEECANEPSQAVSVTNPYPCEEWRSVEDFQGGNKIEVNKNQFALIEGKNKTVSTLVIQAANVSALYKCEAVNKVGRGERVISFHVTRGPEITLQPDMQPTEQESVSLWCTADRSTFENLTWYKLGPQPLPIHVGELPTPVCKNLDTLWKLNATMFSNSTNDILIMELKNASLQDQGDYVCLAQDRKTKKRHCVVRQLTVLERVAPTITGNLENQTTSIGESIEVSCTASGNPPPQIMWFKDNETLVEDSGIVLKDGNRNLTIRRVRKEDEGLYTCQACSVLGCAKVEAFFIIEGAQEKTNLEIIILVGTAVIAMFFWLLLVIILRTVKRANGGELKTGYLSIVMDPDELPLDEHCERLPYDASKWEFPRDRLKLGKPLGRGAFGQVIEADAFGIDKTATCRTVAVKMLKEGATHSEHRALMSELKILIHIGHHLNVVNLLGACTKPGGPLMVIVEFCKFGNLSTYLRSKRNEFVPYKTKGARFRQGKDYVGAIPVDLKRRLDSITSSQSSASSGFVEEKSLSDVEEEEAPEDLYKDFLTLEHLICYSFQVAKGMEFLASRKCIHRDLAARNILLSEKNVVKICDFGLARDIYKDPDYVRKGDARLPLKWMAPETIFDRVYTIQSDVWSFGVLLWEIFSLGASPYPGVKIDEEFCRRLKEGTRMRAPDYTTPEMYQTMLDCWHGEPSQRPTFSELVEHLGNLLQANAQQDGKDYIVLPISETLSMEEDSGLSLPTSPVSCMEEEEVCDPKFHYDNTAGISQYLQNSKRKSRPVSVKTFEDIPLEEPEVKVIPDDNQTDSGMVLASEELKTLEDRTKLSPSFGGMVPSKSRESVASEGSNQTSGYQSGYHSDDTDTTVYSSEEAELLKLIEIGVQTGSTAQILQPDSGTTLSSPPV
Test description: KDR autophosphorylation ELISA in HUVEC cells (Example G)
Type: cell-based
Measurement conditions: cellular activity; KDR autophosphorylation ELISA in HUVEC cells
pIC50: −log10 of the molar value.
Quantity: pIC50

Worked set:
COc1cnc2c(Oc3ccc(NC(=O)c4c(C)n(C)c(C)c(-c5ccc(F)cc5)c4=O)cc3F)ccnc2c1 | < 6.52
COc1cc2nccc(Oc3ccc(NC(=O)c4cn(C)c(C)c(-c5ccc(F)cc5C)c4=O)cc3)c2nc1OC | > 7.00
COc1cc2nccc(Oc3ccc(NC(=O)c4nnc(C)c(-c5ccc(F)cc5C)c4OC)cc3F)c2nc1OC | > 7.00

Give one value of pIC50 per listed compound.
1. COc1cc2nccc(Oc3ccc(NC(=O)c4cnc(C)c(-c5ccc(F)cc5C)c4O)cc3F)c2nc1OCCCN1CCOCC1
2. COc1ccc2nccc(Oc3ccc(NC(=O)c4c(C)n(C)cc(-c5ccc(F)cc5C)c4=O)cc3F)c2n1
3. COc1cc2nccc(Oc3ccc(NC(=O)c4ncc(C)n(-c5ccc(F)cc5C)c4=O)cc3F)c2nc1OC
4. CCOCc1nc(C)c(-c2ccc(F)cc2C)c(O)c1C(=O)Nc1ccc(Oc2ccnc3cc(OC)cnc23)cc1

result:
> 7.00
< 6.52
> 7.00
< 6.52

* * *

Assignment: determine reported pIC50 for the given compounds.
Target under test: KDR (phospho-KDR, VEGF165-stimulated HUVEC cells) (Homo sapiens (Human), UniProt P35968)
Test description: KDR autophosphorylation ELISA in HUVEC cells (Example G)
Assay type: cell-based
Measurement conditions: cellular activity; KDR autophosphorylation ELISA in HUVEC cells
pIC50: −log10 of the molar value.

Worked set:
COc1cnc2c(Oc3ccc(NC(=O)c4cnc(C)c(-c5ccc(C(C)C)cc5)c4O)cc3F)ccnc2c1 | < 6.52
COc1cc2nccc(Oc3ccc(NC(=O)c4nn(C)c(C)c(-c5ccc(F)cc5)c4=O)cc3)c2nc1OC | 6.52 to 7.00
Cc1ncc(C(=O)Nc2ccc(Oc3ccnc4cc(-c5cnn(C(F)F)c5)cnc34)cc2)c(O)c1-c1ccc(F)cc1 | > 7.00

API: the following record is the query input.
query: What pIC50 value was documented for this compound, COc1cnc2c(Oc3ccc(NC(=O)c4cn(C(C)C)cc(-c5ccc(F)cc5)c4=O)cc3F)ccnc2c1 ?
result: < 6.52

* * *

Target under test: KDR (phospho-KDR, VEGF165-stimulated HUVEC cells) (Homo sapiens (Human), UniProt P35968)
Test description: KDR autophosphorylation ELISA in HUVEC cells (Example G)
Assay type: cell-based
Measurement conditions: cellular activity; KDR autophosphorylation ELISA in HUVEC cells
pIC50: −log10 of the molar value.
Assignment: determine reported pIC50 for the given compounds.

COc1cc(F)ccc1-c1cnc(C)c(C(=O)Nc2ccc(Oc3ccnc4cc(OC)c(OC)nc34)c(F)c2)c1O | > 7.00
COc1cc2nccc(Oc3ccc(NC(=O)c4c(C)c(Br)c(C)n(-c5ccccc5)c4=O)cc3F)c2nc1OC | 6.52 to 7.00
COc1cc2nccc(Oc3ccc(NC(=O)c4nc(C)c(C)n(-c5ccc(F)cc5)c4=O)cc3F)c2nc1OC | < 6.52
COc1cnc2c(Oc3ccc(NC(=O)c4c(C)c(Br)c(C)n(-c5ccc(F)cc5)c4=O)cc3F)ccnc2c1 | > 7.00
COc1cc2nccc(Oc3ccc(NC(=O)c4c(C)c(C)c(C)n(-c5ccc(F)cc5)c4=O)cc3F)c2nc1OC | 6.52 to 7.00

Give one value of pIC50 per listed compound.
1. Cn1cc(C(=O)Nc2ccc(Oc3ccnc4cccnc34)c(F)c2)c(=O)c(-c2ccc(F)cc2)c1CO
2. COc1cc2nccc(Oc3ccc(NC(=O)c4c(C)nc(C)c(-c5ccc(F)cc5C)c4O)cc3F)c2nc1Cl

result:
1. < 6.52
2. > 7.00

* * *

Target under test: Human MET (residues 956-1390) (Homo sapiens (Human))
Test description: Human Met kinase assay, HTRF KinEase (Example D-2)
Format: biochemical
Measurement conditions: protocol of Example D-2 (other compounds); read-out: c-Met IC50
pIC50: −log10 of the molar value.
Quantity: pIC50

CCc1cc2nccc(Oc3ccc(NC(=O)c4cnc(C)c(-c5ccc(F)cc5C)c4O)cc3F)c2nc1OC | 6.52 to 7.00

Give one value of pIC50 per listed molecule.
1. COc1cc2nccc(Oc3ccc(NC(=O)c4c(C)n(C)cc(-c5ccc(F)cc5)c4=O)cc3)c2nc1OC
2. COCc1nc(C)c(-c2ccc(F)cc2C)c(O)c1C(=O)Nc1ccc(Oc2ccnc3cc(OC)c(OC)nc23)c(F)c1
3. COc1ccc2nccc(Oc3ccc(NC(=O)c4c(C)cc(C)n(-c5ccc(F)cc5)c4=O)cc3F)c2n1

result:
1: > 7.00; 2: > 7.00; 3: > 7.00

* * *

Target under test: Met (phospho-Met, HGF-stimulated PC-3 prostate cancer cells) (Homo sapiens (Human), UniProt P08581)
Sequence (P08581 25-1390): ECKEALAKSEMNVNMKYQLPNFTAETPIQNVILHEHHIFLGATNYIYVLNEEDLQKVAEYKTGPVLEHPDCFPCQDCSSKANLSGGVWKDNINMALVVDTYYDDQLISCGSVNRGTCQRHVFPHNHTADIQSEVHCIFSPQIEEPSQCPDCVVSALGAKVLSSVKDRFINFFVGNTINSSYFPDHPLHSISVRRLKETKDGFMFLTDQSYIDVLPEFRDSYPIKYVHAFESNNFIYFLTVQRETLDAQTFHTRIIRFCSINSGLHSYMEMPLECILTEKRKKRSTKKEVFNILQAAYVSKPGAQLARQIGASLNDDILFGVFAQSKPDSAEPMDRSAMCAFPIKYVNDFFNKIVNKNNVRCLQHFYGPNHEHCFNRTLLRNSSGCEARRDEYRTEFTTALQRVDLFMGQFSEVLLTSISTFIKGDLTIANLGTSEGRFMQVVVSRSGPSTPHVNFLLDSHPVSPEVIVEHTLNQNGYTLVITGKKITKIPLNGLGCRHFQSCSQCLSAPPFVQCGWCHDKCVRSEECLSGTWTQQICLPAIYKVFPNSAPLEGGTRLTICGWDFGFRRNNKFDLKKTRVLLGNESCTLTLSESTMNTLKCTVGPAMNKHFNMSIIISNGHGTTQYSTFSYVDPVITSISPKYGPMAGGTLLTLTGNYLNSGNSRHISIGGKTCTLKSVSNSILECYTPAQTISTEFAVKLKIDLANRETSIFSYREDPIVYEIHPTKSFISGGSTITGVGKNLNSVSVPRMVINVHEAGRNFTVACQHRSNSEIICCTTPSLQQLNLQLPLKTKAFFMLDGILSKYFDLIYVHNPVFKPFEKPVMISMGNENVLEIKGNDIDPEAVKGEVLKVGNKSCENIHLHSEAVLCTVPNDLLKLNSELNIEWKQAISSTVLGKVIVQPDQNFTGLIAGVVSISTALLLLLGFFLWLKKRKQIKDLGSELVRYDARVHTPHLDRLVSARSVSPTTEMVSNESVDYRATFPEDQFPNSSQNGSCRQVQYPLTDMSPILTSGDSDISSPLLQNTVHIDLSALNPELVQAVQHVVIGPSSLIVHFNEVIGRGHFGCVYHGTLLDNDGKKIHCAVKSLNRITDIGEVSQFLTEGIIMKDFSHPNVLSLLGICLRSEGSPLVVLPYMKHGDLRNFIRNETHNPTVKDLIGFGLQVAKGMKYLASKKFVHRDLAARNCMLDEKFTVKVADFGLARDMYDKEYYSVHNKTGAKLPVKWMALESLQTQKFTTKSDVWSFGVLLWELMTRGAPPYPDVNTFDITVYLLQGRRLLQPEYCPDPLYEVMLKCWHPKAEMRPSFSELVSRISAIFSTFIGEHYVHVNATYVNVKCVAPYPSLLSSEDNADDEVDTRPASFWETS
Test description: Met autophosphorylation ELISA in PC-3 cells (Example F)
Assay type: cell-based
Measurement conditions: cellular activity; Met autophosphorylation ELISA in PC-3 cells; read-out: c-Met IC50
pIC50: −log10 of the molar value.
Quantity: pIC50

Give one value of pIC50 per listed compound.
1. CCc1nc(C)c(-c2ccc(F)cc2C)c(O)c1C(=O)Nc1ccc(Oc2ccnc3ccc(OC)nc23)cc1
2. COc1cc2nccc(Oc3ccc(NC(=O)c4cn(CCO)c(C)c(-c5ccc(F)cc5)c4=O)cc3F)c2nc1OC
3. COc1cc2nccc(Oc3ccc(NC(=O)c4cncc(-c5ccc(F)cc5)c4O)cc3)c2nc1OC
4. COc1ccc2nccc(Oc3ccc(NC(=O)c4c(C)ncn(-c5ccc(F)cc5)c4=O)cc3F)c2n1

result:
1. > 7.00
2. > 7.00
3. > 7.00
4. > 7.00

* * *

Target under test: Human KDR (residues 790-1356) (Homo sapiens (Human), UniProt P35968)
Test description: Human KDR kinase assay, HTRF KinEase (Example B-2)
Type: biochemical
Measurement conditions: protocol of Example B-2 (other compounds)
Quantity: IC50

Worked set:
COc1cc2nccc(Oc3ccc(NC(=O)c4c(C)cc(C)n(-c5ccc(F)cc5C)c4=O)cc3F)c2nc1OC | < 100 nM
COc1cc2nccc(Oc3ccc(NC(=O)c4cnc(C)c(-c5ccc(F)cc5C)c4O)cc3)c2nc1OC | < 100 nM
COc1cc2nccc(Oc3ccc(NC(=O)c4nc(C)c(C)n(-c5ccc(F)cc5)c4=O)cc3F)c2nc1OC | 100 to 300 nM
CCn1cc(-c2ccc(F)cc2)c(=O)c(C(=O)Nc2ccc(Oc3ccnc4cc(OC)cnc34)c(F)c2)c1C | > 300 nM
CCc1nc(C)c(-c2ccc(F)cc2)c(O)c1C(=O)Nc1ccc(Oc2ccnc3cc(OC)cnc23)cc1 | < 100 nM
COc1cc2nccc(Oc3ccc(NC(=O)c4c(C)cc(C)n(-c5ccc(F)cc5)c4=O)cc3)c2nc1OC | < 100 nM

API: the following record is the query input.
query: What IC50 value was documented for this compound, CCc1nc(C)c(-c2ccc(F)cc2)c(O)c1C(=O)Nc1ccc(Oc2ccnc3ccc(OC)nc23)c(F)c1 ?
result: 100 to 300 nM

* * *

Target under test: Human KDR (residues 790-1356) (Homo sapiens (Human))
Test description: Human KDR kinase assay, HTRF KinEase (Example B-2)
Type: biochemical
Measurement conditions: protocol of Example B-2 (other compounds)
Counter-ions that a name gives are not always drawn.
Quantity: IC50

Worked set:
COc1cnc2c(Oc3ccc(NC(=O)c4cn(C(C)(C)C)c(C)c(-c5ccc(F)cc5)c4=O)cc3)ccnc2c1 | > 0.3 µM
COc1cc2nccc(Oc3ccc(NC(=O)c4cn(C)c(C)c(-c5ccc(F)cc5)c4=O)c(F)c3)c2nc1OC | > 0.3 µM
COc1cc2nccc(Oc3ccc(NC(=O)c4cnc(C)c(-c5ccc(F)cc5C)c4O)cc3F)c2nc1OC(C)C | > 0.3 µM
COc1cc2nccc(Oc3ccc(NC(=O)c4cn(C(C)C)c(C)c(-c5ccccc5)c4=O)cc3F)c2nc1OC [Compound 29, hydrochloride] | < 0.1 µM
COc1cnc2c(Oc3ccc(NC(=O)c4cn(C(C)C)c(C)c(-c5ccc(F)cc5)c4=O)cc3F)ccnc2c1 | > 0.3 µM
COc1cc2nccc(Oc3ccc(NC(=O)c4c(C)n(C)cc(-c5ccc(F)cc5)c4=O)cc3F)c2nc1OC | < 0.1 µM
Cc1ccc(C(=O)Nc2ccc(Oc3ccnc4cc(OCc5ccccc5)cnc34)c(F)c2)c(=O)n1-c1ccc(F)cc1 | 0.1 to 0.3 µM
COc1ccc2nccc(Oc3ccc(NC(=O)c4c[nH]c(=O)n(-c5ccc(F)cc5)c4=O)cc3)c2n1 | > 0.3 µM

Give one value of IC50 per listed compound.
1. COc1cc2nccc(Oc3ccc(NC(=O)c4cn(C)c(C)c(-c5ccc(F)cc5C)c4=O)cc3)c2nc1OC
2. COc1cnc2c(Oc3ccc(NC(=O)c4c(C)ncc(-c5ccc(F)cc5)c4O)cc3)ccnc2c1
3. COc1ccc2nccc(Oc3ccc(NC(=O)c4c(C)nc(C)c(-c5ccc(F)cc5C)c4O)cc3F)c2n1
4. COc1cnc2c(Oc3ccc(NC(=O)c4nnc(C)c(-c5ccc(F)cc5C)c4O)cc3F)ccnc2c1 (single isomer, unassigned) [Compound 249B]
5. COc1cc2nccc(Oc3ccc(NC(=O)c4cnc(CO)c(-c5ccc(F)cc5)c4O)cc3F)c2nc1OC
6. COc1cnc2c(Oc3ccc(NC(=O)c4cnc(C)n(-c5ccc(F)cc5)c4=O)cc3)ccnc2c1

result:
0.1 to 0.3 µM
< 0.1 µM
0.1 to 0.3 µM
> 0.3 µM
< 0.1 µM
> 0.3 µM
